As shown below, each of these compounds has a reported residual activity value.
- subject-of-test: MARK1 (human)
- assay-text: radiometric filter-binding kinase assay, Kinase HotSpot
- measurement-setup: compound 0.5 µM; ATP 10 µM
// note: answer is a bare numeric in %

Observe how each entry below is paired with its result.
{"columns": ["compound", "residual activity (%)"],
 "data": [
  ["CO[C@H]1CC2CC[C@@H](C)[C@@](O)(O2)C(=O)C(=O)N2CCCC[C@H]2C(=O)OC([C@H](C)C[C@@H]2CC[C@@H](O)[C@H](OC)C2)CC(=O)[C@H](C)/C=C(\\C)[C@@H](O)[C@@H](OC)C(=O)[C@H](C)C[C@H](C)/C=C/C=C/C=C/1C (some centres undefined)", 98.8],
  ["N#CC(C#N)=C(N)/C(C#N)=C/c1ccc(O)cc1", 111],
  ["Cc1ccc(S(=O)(=O)/C=C/C#N)cc1", 102]
]}

MARK1 (human) residual activity of CC(C)N(CCC(=O)c1ccc2ccccc2c1)Cc1ccccc1 is 97.7
